Data provenance: ChEMBL document CHEMBL1275380

- experiment: Cytotoxicity against BALB/c mouse Splenocyte assessed as non-cytotoxic concentration after 24 hrs by [3H]-thymidine incorporation assay relative to control
- Assay type: cell-based
- assay.conditions: splenocytes, read-out: Activity
value.kind: MNTC at 24 h

CCC1S/C(=N/N=C(\C)CSc2ccc(C)cc2)NC1=O (stereo not drawn)	> 100 µg/mL
O=C1CS/C(=N/N=C/CSc2ccc(Cl)cc2)N1	> 100 µg/mL
Cc1ccc(SC/C=N/N=C2\NC(=S)C(C)S2)cc1 (stereo not drawn)	< 1 µg/mL
NC(=S)N/N=C/C=C/c1ccccc1	< 1 µg/mL
O=C1CS/C(=N/N=C/C=C/c2ccccc2)N1	< 1 µg/mL
O=C1CS/C(=N/N=C/CSc2ccc(Br)cc2)N1	> 100 µg/mL

Provide MNTC at 24 h values for the following items, in order.
1. NC(=S)N/N=C/CSc1ccccc1
2. C/C(=N\N=C(\N)S)c1ccc(Cl)c(Cl)c1
3. CCC1S/C(=N/N=C(\C)CSc2ccc(Cl)cc2)NC1=O (stereo not drawn)
4. Cc1ccc(SC/C=N/N=C2\NC(=O)C(C)S2)cc1 (stereo not drawn)
5. CC1S/C(=N/N=C/CSc2ccccc2)NC1=O (stereo not drawn)

A)
1: 5 µg/mL; 2: 1 µg/mL; 3: > 100 µg/mL; 4: > 100 µg/mL; 5: > 100 µg/mL

For every item in the list below, what is its measured MNTC at 24 h?
1. CCC1S/C(=N/N=C/CSc2ccc(Br)cc2)NC1=O (stereo not drawn)
2. O=C(Cn1ccnc1[N+](=O)[O-])NCc1ccccc1 [BENZNIDAZOLE]

A)
1. > 100 µg/mL
2. 25 µg/mL
